# assay system: Dolichyl-diphosphooligosaccharide--protein glycosyltransferase 48 kDa subunit (UniProt P39656)
# assay text: Inhibition of asparagine-linked glycosylation by oligosaccharyl transferase
metric: Ki (µM)

A. CC(C)[C@H](NC(=O)[C@@H](NC(=O)[C@@H]1CSCCCCCC(=O)N[C@@H](CCN)C(=O)N1)[C@@H](C)O)C(=O)N[C@H](C(=O)NCCCCc1ccccc1)[C@@H](C)O
B. CC(C)[C@H](NC(=O)[C@@H](NC(=O)[C@@H]1CSCCCCCC(=O)N[C@@H](CCN)C(=O)N1)[C@@H](C)O)C(=O)N[C@H](C(N)=O)[C@@H](C)O
Query: # argmax over Ki for candidates A and B Reply briefly: the label of your chosen item.
Response: B
(B: 0.082 µM, A: 0.05 µM)

====

# assay system: Dolichyl-diphosphooligosaccharide--protein glycosyltransferase 48 kDa subunit (UniProt P39656)
# Sequence (P39656 whole entry): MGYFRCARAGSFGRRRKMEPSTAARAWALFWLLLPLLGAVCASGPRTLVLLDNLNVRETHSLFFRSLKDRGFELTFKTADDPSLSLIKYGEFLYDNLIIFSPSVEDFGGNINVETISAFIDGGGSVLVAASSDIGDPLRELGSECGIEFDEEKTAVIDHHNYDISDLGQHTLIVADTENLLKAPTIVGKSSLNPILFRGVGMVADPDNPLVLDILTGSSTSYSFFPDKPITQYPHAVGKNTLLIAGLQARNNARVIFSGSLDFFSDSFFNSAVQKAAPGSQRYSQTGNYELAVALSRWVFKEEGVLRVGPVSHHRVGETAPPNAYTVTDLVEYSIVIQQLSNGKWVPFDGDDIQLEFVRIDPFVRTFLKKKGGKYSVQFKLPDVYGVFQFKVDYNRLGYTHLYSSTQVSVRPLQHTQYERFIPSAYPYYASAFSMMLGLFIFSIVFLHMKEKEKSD
# assay text: Inhibition of asparagine-linked glycosylation by oligosaccharyl transferase
# Design: species or system Saccharomyces cerevisiae
Starred links: 1 amine or outer side, 2 acyl side, 3 side chain; linkers in the order of their positions; H or OH if unused. Positions of bridges follow the written chain, without caps; N, C: chain ends. Non-standard residues stand in square brackets, D forms with d. Residues, ends and D or L forms follow the SMILES beside them. *: point of attachment. Phe(4-NO2) = N[C@@H](Cc1ccc([N+](=O)[O-])cc1)C(=O)O; X1 = O=C(CCCCC[*:2])[*:1]; Dab = NCC[C@H](N)C(=O)O; X3 = c1ccc2cc(*)ccc2c1
metric: Ki (nM)

Answered cases to consult:
compound	units label	val
[H][C@@](NC(=O)[C@@H]1CSCCCCCC(=O)N[C@@H](CCN)C(=O)N1)(C(=O)N[C@H](C(=O)N[C@H](C(=O)N[C@@H](Cc1ccc([N+](=O)[O-])cc1)C(N)=O)[C@@H](C)O)C(C)C)[C@@H](C)O (HELM PEPTIDE1{[Dab].C.T.V.T.[O=C([C@H](Cc1ccc([N+](=O)[O-])cc1)N[*:1])[*:2]].[am]}|CHEM1{[O=C(CCCCC[*:2])[*:1]]}$PEPTIDE1,CHEM1,1:R1-1:R1|PEPTIDE1,CHEM1,2:R3-1:R2$$$V2.0)	nM	37
COc1ccc(CNCCC[C@H](NCc2ccccc2)C(=O)NCC(=O)N[C@H](C(=O)N[C@H](C(=O)N[C@H](C(N)=O)[C@@H](C)O)C(C)C)[C@@H](C)O)cc1 (HELM PEPTIDE1{[COc1ccc(CNCCC[C@H](NCc2ccccc2)C(=O)[*:2])cc1].G.T.V.T.[am]}$$$$V2.0)	nM	305
CC(C)[C@H](NC(=O)[C@@H](NC(=O)[C@@H]1CSCCCCCC(=O)N[C@@H](CCNc2ccc3ccccc3c2)C(=O)N1)[C@@H](C)O)C(=O)N[C@H](C(=O)N[C@@H](Cc1ccc([N+](=O)[O-])cc1)C(N)=O)[C@@H](C)O ([Dab](X3)CTVT[Phe(4-NO2)]-NH2; linker N-2 via X1)	nM	40

a. CC(C)[C@H](NC(=O)[C@@H](NC(=O)[C@@H]1CSCCCCCC(=O)N[C@@H](CCN)C(=O)N1)[C@@H](C)O)C(=O)N[C@H](C(=O)NCCc1ccc([N+](=O)[O-])cc1)[C@@H](C)O
b. CC(C)[C@H](NC(=O)[C@@H](NC(=O)[C@@H]1CSCCCCCC(=O)N[C@@H](CCNc2ccc3ccccc3c2)C(=O)N1)[C@@H](C)O)C(=O)N[C@H](C(=O)NCCc1ccc([N+](=O)[O-])cc1)[C@@H](C)O
Query: a or b : whose Ki is greater? Respond with the label that goes with your answer.
Response: a

Reference source for all entries: ChEMBL document CHEMBL1133382
